experiment: Antitumor activity against human […] cells assessed as cell growth at 10 uM after 48 hrs by sulforhodamine B assay; type: functional; conditions: read-out: Activity
// reported growth at 10 µM per item
Record the value in %, omitting the unit from your answer.

Here's what some known entries look like.
CN1C/C(=C\c2ccc(Cl)cc2)C(=O)[C@]2(C1)[C@@H](c1ccc(Cl)cc1)CN(C)[C@@]21C(=O)N(C)c2ccccc21: 38
COc1ccc(/C=C2\CN(C)C[C@@]3(C2=O)[C@@H](c2ccccc2)CN(C)[C@@]32C(=O)Nc3ccccc32)cc1: 20.7
CN1C/C(=C\c2ccc(-c3cccs3)cc2)C(=O)[C@]2(C1)[C@@H](c1ccc(-c3cccs3)cc1)CN(C)[C@@]21C(=O)N(C)c2ccccc21: 10.6

Form field: reported growth at 10 µM of "CN1C/C(=C\c2ccc(Cl)cc2)C(=O)[C@]2(C1)[C@@H](c1ccc(Cl)cc1)CN(C)[C@@]21C(=O)Nc2ccccc21" 38.5

----------
// reported growth at 10 µM per item
tested on: SF-539; experiment: Antitumor activity against human SF539 cells assessed as cell growth at 10 uM after 48 hrs by sulforhodamine B assay; format: functional; conditions: SF-539, 48 h, read-out: Activity

Please provide the recorded growth at 10 µM for "CN1C/C(=C\c2ccc(Cl)cc2)C(=O)[C@]2(C1)[C@@H](c1ccc(Cl)cc1)CN(C)[C@@]21C(=O)Nc2ccccc21" , tested on SF-539. 83.3%

Please provide the recorded growth at 10 µM for "CN1C/C(=C\c2ccc(Cl)cc2)C(=O)[C@]2(C1)[C@@H](c1ccc(Cl)cc1)CN(C)[C@@]21C(=O)N(C)c2ccccc21" , tested on SF-539. 78.1%

Please provide the recorded growth at 10 µM for "CN1C/C(=C\c2ccc(-c3cccs3)cc2)C(=O)[C@]2(C1)[C@@H](c1ccc(-c3cccs3)cc1)CN(C)[C@@]21C(=O)N(C)c2ccccc21" , tested on SF-539. 75.4%

Please provide the recorded growth at 10 µM for "COc1ccc(/C=C2\CN(C)C[C@@]3(C2=O)[C@@H](c2ccccc2)CN(C)[C@@]32C(=O)Nc3ccccc32)cc1" , tested on SF-539. 74%

----------
// reported growth at 10 µM per item
system: BT-549; assay: Antitumor activity against human BT549 cells assessed as cell growth at 10 uM after 48 hrs by sulforhodamine B assay; assay type: functional; settings: BT-549, 48 h, read-out: Activity
Record the value in %, omitting the unit from your answer.

COc1ccc(/C=C2\CN(C)C[C@@]3(C2=O)[C@@H](c2ccccc2)CN(C)[C@@]32C(=O)Nc3ccccc32)cc1: 56.3
CN1C/C(=C\c2ccc(Cl)cc2)C(=O)[C@]2(C1)[C@@H](c1ccc(Cl)cc1)CN(C)[C@@]21C(=O)N(C)c2ccccc21: 80.3

Form field: reported growth at 10 µM of "CN1C/C(=C\c2ccc(-c3cccs3)cc2)C(=O)[C@]2(C1)[C@@H](c1ccc(-c3cccs3)cc1)CN(C)[C@@]21C(=O)N(C)c2ccccc21" 79.7

Form field: reported growth at 10 µM of "CN1C/C(=C\c2ccc(Cl)cc2)C(=O)[C@]2(C1)[C@@H](c1ccc(Cl)cc1)CN(C)[C@@]21C(=O)Nc2ccccc21" 63.9

----------
tested on: Rattus norvegicus; experiment: Antiinflammatory activity in Wister albino rat assessed as inhibition of carrageenan-induced paw oedema at 50 mg/kg, ip administered 1 hr before carrageenan challenge measured after 4 hrs of induction of inflammation relative to indomethacin; assay type: functional; conditions: route intraperitoneal
Parameter Measured: inhibition in vivo at 50 mg/kg (%)
Record the value in %, omitting the unit from your answer.

CN1C/C(=C\c2ccc(-c3cccs3)cc2)C(=O)[C@]2(C1)[C@@H](c1ccc(-c3cccs3)cc1)CN(C)[C@@]21C(=O)N(C)c2ccccc21: 124
CN1C/C(=C\c2ccc(-c3cccs3)cc2)C(=O)[C@]2(C1)[C@@H](c1ccc(-c3cccs3)cc1)CN(C)[C@@]21C(=O)Nc2ccccc21: 126
Cc1ccc(/C=C2\CN(C)C[C@@]3(C2=O)[C@@H](c2ccc(C)cc2)CN(C)[C@@]32C(=O)N(C)c3ccccc32)cc1: 122
CN1C/C(=C\c2ccccc2)C(=O)[C@]2(C1)[C@@H](c1ccccc1)CN(C)[C@@]21C(=O)Nc2ccccc21: 126
CN1C/C(=C\c2ccc(F)cc2)C(=O)[C@]2(C1)[C@@H](c1ccc(F)cc1)CN(C)[C@@]21C(=O)Nc2ccccc21: 109

Please provide the recorded inhibition in vivo at 50 mg/kg for "Cc1ccc(/C=C2\CN(C)C[C@@]3(C2=O)[C@@H](c2ccc(C)cc2)CN(C)[C@@]32C(=O)Nc3ccccc32)cc1" , tested on Rattus norvegicus. 89.7

Please provide the recorded inhibition in vivo at 50 mg/kg for "CN1C/C(=C\c2ccc(Cl)cc2)C(=O)[C@]2(C1)[C@@H](c1ccc(Cl)cc1)CN(C)[C@@]21C(=O)Nc2ccccc21" , tested on Rattus norvegicus. 74.7

Please provide the recorded inhibition in vivo at 50 mg/kg for "CN1C/C(=C\c2ccc(Br)cc2)C(=O)[C@]2(C1)[C@@H](c1ccc(Br)cc1)CN(C)[C@@]21C(=O)N(C)c2ccccc21" , tested on Rattus norvegicus. 82.8
